# Assay Target: Muscarinic acetylcholine receptor M5 (Homo sapiens)
# Protocol: human M5 muscarinic receptor antagonists, primary screen, CHO cells, Fluo-8 calcium fluorescence (AID 624040);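 also: 0% = acetylcholine EC80 with DMSO and 100% = DMSO without agonist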
# Measurement Setup: CHO-hM5 cells, ACh EC80, at 3 µM, active compounds read high
Among all 360,000 compounds or so, about 2,100 (0.58%) were called active. The sample as a whole holds a higher share of actives than the screen did.
Measured Parameter: inhibition (%)
Number only, in %; omit the unit.

Worked set:
CN(C(=O)CN1CCN(c2cc(-c3ccc(OCc4ccccc4)cc3)ncn2)CC1)c1ccccc1 ... 27.1
Cc1ccc(-c2c[n+](CC(=O)Nc3ccccc3)c3n2CCC3)cc1 ... 2.52
CCCCC(=O)NNC(=S)NC(=O)C(c1ccccc1)c1ccccc1 ... 28.1
C=CCC(NC(=O)Cc1ccccc1)C(=O)NCCC (stereo unspecified) ... -3.26

Looking up CCOc1ccc(OCc2ccc(C(=O)N(C)c3ccccc3)o2)cc1 , I see its inhibition listed as 8.29

These data points were gathered from PubChem BioAssay AID624040.
